The reported measurements were obtained from ChEMBL document CHEMBL1641586.

- system-name: UniProt P30531
- assay-info: Displacement of [3H]Tiagabine from human recombinant GAT1 expressed in HEK293 cells by equilibrium binding assay
Entries and their log10(Ki)
Hey, these are logged values: log10 of Ki, nM being the unit before logging.

>  <compound>
Cc1ccccc1/C(=C\CCN1CCC[C@@H](C(=O)O)C1)c1ccccc1Cl

>  <log10(Ki)>
1.79

$$$$

Shift focus to the following entry.
What value of log10(Ki) has been reported for the following compound? "CC(=O)[C@@H]1CC[C@H]2CC[C@@H]1N2CCC=C(c1ccccc1)c1ccccc1"
3.44

###

- system-name: Sodium- and chloride-dependent GABA transporter 1 (Homo sapiens)
- assay-info: Displacement of [3H]Tiagabine from human recombinant GAT1 expressed in HEK293 cells by equilibrium binding assay
pKi: −log10 of the molar value.
Entries and their pKi

A selection of reference data follows.
>  <compound>
Cc1ccc(C(=CCCN2CC[C@@H]3[C@H](C2)[C@@H]3C(=O)O)c2ccc(C)s2)s1

>  <pKi>
< 5.00

$$$$
>  <compound>
Cc1ccc(C(=CCCN2CC[C@H]3[C@@H](C2)[C@@H]3C(=O)O)c2ccc(C)s2)s1

>  <pKi>
< 5.00

$$$$

What value of pKi has been reported for the following compound? Cc1ccc(C(=CCCN2CCOC(C(=O)O)C2)c2ccc(C)s2)s1 (stereo not drawn)
< 5.00

###

- system-name: UniProt:P30531
- assay-info: Displacement of [3H]Tiagabine from human recombinant GAT1 expressed in HEK293 cells by equilibrium binding assay
pKi: −log10 of the molar value.
We use 7 as the dividing line for pKi: on or above the line is Fulfilled, below is Not fulfilled.

Sample answers from the record:
>  <compound>
O=C(O)[C@@H]1CCCN(CC/C=C(\c2ccccc2)c2ccccc2C(F)(F)F)C1

>  <system-name>
UniProt:P30531

>  <classification>
Not fulfilled

$$$$
>  <compound>
O=C(O)[C@@H]1CCCN(CC/C=C(/c2ccccc2)c2ccccc2Br)C1

>  <system-name>
UniProt:P30531

>  <classification>
Fulfilled

$$$$

Textbook exercise: given the entry "Cc1ccccc1/C(=C\CCN1CCC[C@@H](C(=O)O)C1)c1ccccc1" , state whether its pKi is greater than or equal to 7.
Fulfilled

Further, for "O=C(O)[C@@H]1CCCN(CC/C=C(/c2ccccc2)c2ccccc2OC(F)(F)F)C1" ?
Fulfilled

Further, for "O=C(O)[C@@H]1CCCN(CC/C=C(/c2ccccc2)c2c(F)cccc2F)C1" ?
Not fulfilled

Further, for "O=C(O)[C@@H]1CCCN(CC/C=C(\c2ccccc2)c2c(F)cccc2F)C1" ?
Not fulfilled

Further, for "CCc1ccccc1/C(=C\CCN1CCC[C@@H](C(=O)O)C1)c1ccccc1" ?
Fulfilled

###

- system-name: Sodium- and chloride-dependent GABA transporter 1 (Homo sapiens, UniProt P30531)
- Sequence (P30531 whole entry): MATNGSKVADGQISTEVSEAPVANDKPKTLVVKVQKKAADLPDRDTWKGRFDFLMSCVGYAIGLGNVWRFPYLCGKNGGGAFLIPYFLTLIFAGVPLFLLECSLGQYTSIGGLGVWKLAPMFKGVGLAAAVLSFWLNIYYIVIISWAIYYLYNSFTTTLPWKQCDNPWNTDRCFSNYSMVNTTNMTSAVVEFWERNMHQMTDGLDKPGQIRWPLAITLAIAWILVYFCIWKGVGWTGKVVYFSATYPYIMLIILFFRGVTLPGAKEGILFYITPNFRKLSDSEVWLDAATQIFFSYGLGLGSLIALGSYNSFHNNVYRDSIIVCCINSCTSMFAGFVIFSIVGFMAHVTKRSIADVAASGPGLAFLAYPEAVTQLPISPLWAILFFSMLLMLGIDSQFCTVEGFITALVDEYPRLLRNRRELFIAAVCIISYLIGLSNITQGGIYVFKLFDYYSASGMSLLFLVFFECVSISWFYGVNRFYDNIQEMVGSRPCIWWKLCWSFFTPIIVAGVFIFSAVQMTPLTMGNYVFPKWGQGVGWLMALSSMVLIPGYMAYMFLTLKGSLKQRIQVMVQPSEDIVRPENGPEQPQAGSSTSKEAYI
- assay-info: Displacement of [3H]Tiagabine from human recombinant GAT1 expressed in HEK293 cells by equilibrium binding assay
assay-metric: Ki

A selection of reference data follows.
>  <compound>
CCc1ccccc1/C(=C/CCN1CCC[C@@H](C(=O)O)C1)c1ccccc1F

>  <experimental-result>
89.1 nM

$$$$
>  <compound>
CCc1ccccc1/C(=C/CCN1CCC[C@@H](C(=O)O)C1)c1ccccc1

>  <experimental-result>
102 nM

$$$$
>  <compound>
Cc1ccccc1/C(=C/CCN1CCC[C@@H](C(=O)O)C1)c1ccccc1F

>  <experimental-result>
72.4 nM

$$$$
>  <compound>
O=C(O)[C@@H]1CCCN(CC/C=C(\c2ccccc2F)c2ccccc2Cl)C1

>  <experimental-result>
158 nM

$$$$
>  <compound>
O=C(O)[C@@H]1CCCN(CC/C=C(/c2ccccc2)c2ccccc2C(F)(F)F)C1

>  <experimental-result>
93.3 nM

$$$$
>  <compound>
O=C(O)[C@@H]1CCCN(CC/C=C(\c2ccccc2)c2ccccc2OC(F)(F)F)C1

>  <experimental-result>
646 nM

$$$$
>  <compound>
Cc1ccc(C(=CCCN2C[C@@H]3[C@H](C2)[C@@H]3C(=O)O)c2ccc(C)s2)s1

>  <experimental-result>
> 10000 nM

$$$$
>  <compound>
Cc1cc(F)ccc1/C(=C\CCN1CCC[C@@H](C(=O)O)C1)c1ccccc1

>  <experimental-result>
33.9 nM

$$$$

What value of Ki has been reported for the following compound? "Cc1cc(F)ccc1/C(=C\CCN1CCC[C@@H](C(=O)O)C1)c1ccccc1C(F)(F)F"
38.9 nM

Further, for "O=C(O)[C@@H]1CCCN(CC/C=C(/c2ccccc2F)c2ccccc2Cl)C1" ?
18.2 nM

Further, for "Cc1ccc(C(=CCCN(C)[C@H]2CCCC[C@@H]2C(=O)O)c2ccc(C)s2)s1" ?
> 10000 nM

Further, for "Cc1ccccc1/C(=C\CCN1CCC[C@@H](C(=O)O)C1)c1ccccc1F" ?
14.8 nM

Further, for "O=C(O)[C@@H]1CCCN(CC/C=C(\c2ccccc2)c2ccccc2-c2ccccc2)C1" ?
676 nM

Further, for Cc1ccc(C(=CCCN2CCCC(F)(C(=O)O)C2)c2ccc(C)s2)s1 (stereo unspecified) ?
138 nM

Further, for "Cc1ccccc1/C(=C\CCN1CCC[C@@H](C(=O)O)C1)c1ccccc1C(F)(F)F" ?
380 nM

Further, for "Cc1ccccc1/C(=C/CCN1CCC[C@@H](C(=O)O)C1)c1ccccc1" ?
93.3 nM

Further, for "COc1ccccc1/C(=C/CCN1CCC[C@@H](C(=O)O)C1)c1ccccc1C" ?
70.8 nM

Further, for "O=C(O)[C@@H]1CCCN(CC/C=C(/c2ccccc2F)c2ccccc2Br)C1" ?
21.9 nM

Further, for "Cc1ccccc1C(=CCCN1CCC[C@@H](C(=O)O)C1)c1ccccc1C" ?
41.7 nM

Further, for "O=C(O)[C@@H]1CCCN(CC/C=C(\c2ccccc2F)c2ccccc2C(F)(F)F)C1" ?
355 nM
